B1: TPR 5TU (parent)
chain: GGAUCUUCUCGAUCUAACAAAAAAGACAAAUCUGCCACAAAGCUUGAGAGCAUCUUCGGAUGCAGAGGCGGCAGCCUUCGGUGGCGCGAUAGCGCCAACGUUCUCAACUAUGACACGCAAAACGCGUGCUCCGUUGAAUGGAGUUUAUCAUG

Variants of: B1
experiment_description: polymerase ribozyme fitness, log enrichment relative to wild type (log ratio); higher = more active; in vitro selection for triplet polymerase activity
This sample holds only a part of the variants without activity.

{"mutations": "A29U U111C C114G G140U", "polymerase ribozyme fitness (log ratio)": "≤ -4.2"}
{"mutations": "G34U", "polymerase ribozyme fitness (log ratio)": -1.11}
{"mutations": "A52C G84A", "polymerase ribozyme fitness (log ratio)": -1.32}
{"mutations": "C27G C63A C85U C87A G136A A138C", "polymerase ribozyme fitness (log ratio)": "≤ -4.2"}
{"mutations": "A3U A91C", "polymerase ribozyme fitness (log ratio)": -3.34}
{"mutations": "U55A A60U G84U C116G A119U", "polymerase ribozyme fitness (log ratio)": -2.63}
{"mutations": "A29C A41G G59C G62C G100A G141C", "polymerase ribozyme fitness (log ratio)": "≤ -4.2"}
{"mutations": "U9C A26G U55A A122U", "polymerase ribozyme fitness (log ratio)": "≤ -4.2"}
{"mutations": "C38G G42C G71C C95A C96A", "polymerase ribozyme fitness (log ratio)": "≤ -4.2"}
{"mutations": "U13C U45G G81A C85U C118U G126A", "polymerase ribozyme fitness (log ratio)": "≤ -4.2"}
{"mutations": "G94C U145G", "polymerase ribozyme fitness (log ratio)": -0.944}
